Every entry's value here was drawn from the array DNA melting data of Ke et al. (doi:10.1101/2024.01.08.574731).

// folding enthalpy lookup, one value per entry
Assay: folding enthalpy; higher = less favourable; fluorescence melt of hairpins on a sequencing array, two-state fit
Details: sodium 0.088 M
Express your answer in kcal/mol, writing the number without its unit.

Before answering, review these 5 worked examples.
GATCAAATTTTGATC ((((((...)))))) :: -31.4
GCGAGAGGAAACTTTCGC ((((.((....)).)))) :: -33.8
GCGTACGGAAACGTGTGC ((..(((....)))..)) :: -29.1
GTGGGCGAAAGCCTCAC ((((((....))).))) :: -15.5
GTTGCAGGAAACTGTAAC (((.(((....))).))) :: -29.8

Given GGGATAGCGAAAGCTCCC (((..(((....)))))) , state its recorded folding enthalpy.
-21.8

Which folding enthalpy is reported for this sequence? GGCAAGGGAAACCTTACC ((.((((....)))).))
-29.2

Which value of folding enthalpy has been reported for GTTGGCGAAAGCCTGAAC ((((((....)))..))) in the records?
-8.07

Give the measured folding enthalpy of GTGAACGAAAGTTACAC ((((((....))).))) .
-17.7

I am curious: what folding enthalpy value has been reported for GCGCTACGAAAGTACCGC (((.(((....))).))) ?
-36.1

Report folding enthalpy for GTAACCCGAAAGGGATAC (((.(((....))).))) please.
-23.4

----------
Experiment: melting temperature; fluorescence melt of hairpins on a sequencing array, two-state fit, raised by 9.35 °C to match UV melts
Conditions: sodium 0.088 M
We begin with a simple list: items and their reported Tm.
Quick note: give the figure in °C, leave out the unit.

Solved cases below.
GGGCGTGGAAACATGCCC ((((.((....)).)))) :: 63.1
GAGGGGACGAAAGTCCTC (((..(((....)))))) :: 41.2
GGTGACGAAAGTCAGACC ((((((....)))..))) :: 44.6
GATCGAGCCTCGATC ((((((...)))))) :: 52.8
GAGCGTGGAAACGTGCTC ((((..(....)..)))) :: 47.6
GAACAAGGAAACTCGTTC ((((.((....)).)))) :: 27

Consider the sequence shown here: GCAAAAGGAAACCTTTGC (((((.(....).))))) What is its recorded Tm?
39.6

What Tm value was documented for this sequence, GTTCGACCGAAAGGTAAC (((..(((....)))))) ?
27.3

Looking for the measured Tm of GCGTAAGGAAACTCACGC ((((.((....)).)))) , can you help?
43.8

Reported Tm, sequence GTTGCTCGAAAGAGTAAC (((.(((....))).))) : ____
52.4

Which measured Tm value corresponds to GTTACCGAAAGGTTGAAC ((((((....)))..))) ?
29.2

Given the sequence GCAATGCGAAAGCAACGC ((..(((....)))..)) , what is its reported Tm?
40.2

----------
Test: folding enthalpy; higher = less favourable; fluorescence melt of hairpins on a sequencing array, two-state fit
Conditions: sodium 0.088 M
Recorded endpoint: folding enthalpy (kcal/mol)
Provide the reading as a plain figure in kcal/mol.

Example results:
GACGTTGGAAACAGTGTC (((..((....))..))) :: -14.1
GGTAGTCGAAAGACGACC (((.(((....))).))) :: -44.9
GGATTCACGAAAGTGTCC (((..(((....)))))) :: -12.5

For the sequence shown here, GATCGACGATCGATC ((((((...)))))) , give the reported folding enthalpy.
-20.6

Field request: folding enthalpy | item: GATCGTCACGACGATC ((((((....))))))
-43.1

For the sequence shown here, GTTCGGGGAAACTCGGAC ((.((.(....).)).)) , give the reported folding enthalpy.
-25.6

Which folding enthalpy reading was recorded for the sequence GCTTTCCGAAAGGAAGC (((.(((....)))))) ?
-21.1

Form field: reported folding enthalpy of GATCGATGTATCGATC ((((((....))))))
-40.9
